target: UniProtKB Q01959; assay: Displacement of [3H]-Win35428 from human DAT expressed in stable HEK cell membranes after 90 mins by microbeta scintillation counting method; conditions: read-out: Ki
pKi: −log10 of the molar value.
measurement name: pKi

compound smiles: CCCN(CC[C@]1(O)C[C@H](NC(=O)c2ccc3ccccc3c2)C1)[C@H]1CCc2nc(N)sc2C1
value reported: 6.69

====

biological target: Beta-1 adrenergic receptor (Homo sapiens); test: Displacement of [125I]-pindolol from recombinant human beta1 adrenergic receptor expressed in CHO Flp-In cell membranes at 10 uM measured after 90 mins by microbeta scintillation counting method relative to control; details: probe [125I]-pindolol
Sequence (P08588 whole entry): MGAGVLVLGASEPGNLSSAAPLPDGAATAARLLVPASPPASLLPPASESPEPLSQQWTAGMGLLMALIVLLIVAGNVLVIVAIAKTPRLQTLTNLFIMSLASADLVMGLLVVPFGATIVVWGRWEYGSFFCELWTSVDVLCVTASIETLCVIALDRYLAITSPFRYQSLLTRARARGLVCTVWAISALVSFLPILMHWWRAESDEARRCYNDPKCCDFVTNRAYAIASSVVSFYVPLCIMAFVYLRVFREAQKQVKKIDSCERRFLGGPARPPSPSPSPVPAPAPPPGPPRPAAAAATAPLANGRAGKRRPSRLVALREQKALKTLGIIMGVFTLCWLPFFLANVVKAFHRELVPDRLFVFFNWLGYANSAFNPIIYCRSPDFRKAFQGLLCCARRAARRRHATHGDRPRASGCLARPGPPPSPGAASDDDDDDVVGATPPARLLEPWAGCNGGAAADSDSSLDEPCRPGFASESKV
Listed next: entries and their corresponding inhibition at […], 10 µM.
measurement name: inhibition at […], 10 µM

compound: CCCN[C@H]1CCc2nc(N)sc2C1 [PRAMIPEXOLE]
value reported: < 50%
//
compound: CCCN(CC[C@]1(O)C[C@H](NC(=O)c2ccc3ccccc3c2)C1)[C@H]1CCc2nc(N)sc2C1
value reported: < 50%

====

molecular target: Kappa-type opioid receptor (Homo sapiens, UniProt P41145); experiment: Displacement of [3H]-U69593 from KOR (unknown origin) measured after 90 mins by microbeta scintillation counting method; details: read-out: Ki
Sequence (P41145 whole entry): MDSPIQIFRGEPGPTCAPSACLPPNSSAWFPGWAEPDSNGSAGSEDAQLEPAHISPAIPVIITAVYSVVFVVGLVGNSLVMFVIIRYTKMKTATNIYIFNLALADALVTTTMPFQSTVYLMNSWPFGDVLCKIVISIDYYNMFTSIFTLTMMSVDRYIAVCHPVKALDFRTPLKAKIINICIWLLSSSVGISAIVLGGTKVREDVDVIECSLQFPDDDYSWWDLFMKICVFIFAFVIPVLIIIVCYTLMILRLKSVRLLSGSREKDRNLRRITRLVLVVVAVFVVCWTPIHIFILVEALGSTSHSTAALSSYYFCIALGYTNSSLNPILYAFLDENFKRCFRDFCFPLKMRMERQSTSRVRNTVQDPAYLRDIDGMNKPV
pKi: −log10 of the molar value.
measurement name: pKi

compound smiles: CCCN(CC[C@]1(O)C[C@H](NC(=O)c2ccc3ccccc3c2)C1)[C@H]1CCc2nc(N)sc2C1
value reported: < 5.00

====

target: D(2) dopamine receptor (Homo sapiens, UniProt P14416); test: Agonist activity at human D2R expressed in CHOK1 cells assessed as induction of beta-arrestin recruitment measured after 90 mins by beta-galactosidase based PathHunter assay; assay type: cell-based; conditions: read-out: EC50
Sequence (P14416 whole entry): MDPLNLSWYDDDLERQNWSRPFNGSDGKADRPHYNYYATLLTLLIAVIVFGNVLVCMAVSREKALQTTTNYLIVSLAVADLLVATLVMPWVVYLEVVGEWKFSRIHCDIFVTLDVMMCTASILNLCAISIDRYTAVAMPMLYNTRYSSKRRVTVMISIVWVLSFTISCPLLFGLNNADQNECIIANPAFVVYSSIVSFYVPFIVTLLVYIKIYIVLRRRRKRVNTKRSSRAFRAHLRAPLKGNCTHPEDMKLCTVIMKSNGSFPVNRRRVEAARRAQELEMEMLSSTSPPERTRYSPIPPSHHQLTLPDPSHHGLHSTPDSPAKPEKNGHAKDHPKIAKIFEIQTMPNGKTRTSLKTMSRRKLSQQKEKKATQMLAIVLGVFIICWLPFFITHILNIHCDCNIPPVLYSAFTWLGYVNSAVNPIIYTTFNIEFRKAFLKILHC
pEC50: −log10 of the molar value.

compound smiles: O=C(c1cc2ccccc2[nH]1)N1CCN(CCOc2cncc(Cl)c2)CC1
comparative sign: =
pEC50: 6.10
--
compound smiles: COc1ccc(OCCN2CCN(C(=O)c3ccc(OC)cn3)CC2)cc1
comparative sign: <
pEC50: 4.30
--
compound smiles: COc1ccc(OCCN2CCN(C(=O)c3cc4ccncc4[nH]3)CC2)cc1
comparative sign: =
pEC50: 5.11
--
compound smiles: O=C(c1n[nH]c2ccccc12)N1CCN(CCOc2cccnc2)CC1
comparative sign: =
pEC50: 5.39
--
compound smiles: COc1ccc(OCCN2CCN(C(=O)c3cc4cccc(OC)c4[nH]3)CC2)cc1
comparative sign: =
pEC50: 5.22
--
compound smiles: COc1ccc(OCCN2CCN(S(=O)(=O)c3ccc(OC)cc3)CC2)cc1
comparative sign: <
pEC50: 4.00
--
compound smiles: O=C(c1cc2ccc(Cl)cc2[nH]1)N1CCN(CCOc2cccnc2)CC1
comparative sign: =
pEC50: 6.74
--
compound smiles: Cc1cccc2[nH]c(C(=O)N3CCN(CCOc4cccnc4)CC3)cc12
comparative sign: =
pEC50: 6.74

====

Target: Alpha-2B adrenergic receptor (Homo sapiens, UniProt P18089)
Sequence (P18089 whole entry): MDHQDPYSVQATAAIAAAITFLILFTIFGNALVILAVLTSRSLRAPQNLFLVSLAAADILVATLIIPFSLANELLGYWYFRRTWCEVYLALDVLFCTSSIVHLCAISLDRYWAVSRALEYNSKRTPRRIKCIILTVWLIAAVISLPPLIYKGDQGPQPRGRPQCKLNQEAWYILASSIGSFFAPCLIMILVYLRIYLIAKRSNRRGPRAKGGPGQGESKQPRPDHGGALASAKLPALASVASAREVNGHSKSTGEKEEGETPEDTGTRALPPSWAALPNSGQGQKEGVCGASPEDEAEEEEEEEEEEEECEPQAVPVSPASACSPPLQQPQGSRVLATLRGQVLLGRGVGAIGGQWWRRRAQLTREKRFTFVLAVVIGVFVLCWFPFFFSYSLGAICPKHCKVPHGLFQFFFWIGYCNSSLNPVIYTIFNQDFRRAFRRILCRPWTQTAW
Assay: Displacement of [3H]-rauwolscine from recombinant human alpha2B adrenergic receptor transiently expressed in HEKT cell membranes at 10 uM measured after 90 mins by microbeta scintillation counting method relative to control
Settings: probe [3H]-rauwolscine
In this section, each of the molecules is paired with its reported inhibition at […], 10 µM.
measurement name: inhibition at […], 10 µM

molecule: CCCN(CC[C@]1(O)C[C@H](NC(=O)c2ccc3ccccc3c2)C1)[C@H]1CCc2nc(N)sc2C1
measurement name: inhibition at […], 10 µM
value reported: < 50%

molecule: CCCN[C@H]1CCc2nc(N)sc2C1 [PRAMIPEXOLE]
measurement name: inhibition at […], 10 µM
value reported: > 50%

====

target: Mu-type opioid receptor (Homo sapiens, UniProt P35372); test: Displacement of [3H]-DAMGO from recombinant human MOR stably expressed in HEK cell membranes measured after 90 mins by microbeta scintillation counting method; conditions: read-out: Ki
Sequence (P35372 whole entry): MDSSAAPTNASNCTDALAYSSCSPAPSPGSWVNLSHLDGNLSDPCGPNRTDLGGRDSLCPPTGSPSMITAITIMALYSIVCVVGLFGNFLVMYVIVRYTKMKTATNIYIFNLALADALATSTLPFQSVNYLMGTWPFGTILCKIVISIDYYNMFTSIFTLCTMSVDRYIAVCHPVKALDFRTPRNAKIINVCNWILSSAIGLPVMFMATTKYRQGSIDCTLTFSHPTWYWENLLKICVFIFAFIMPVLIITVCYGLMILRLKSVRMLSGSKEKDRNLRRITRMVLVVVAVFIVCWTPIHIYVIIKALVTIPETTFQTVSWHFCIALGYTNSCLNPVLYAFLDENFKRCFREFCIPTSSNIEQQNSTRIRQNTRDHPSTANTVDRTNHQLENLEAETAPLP

compound smiles: CCCN(CC[C@]1(O)C[C@H](NC(=O)c2ccc3ccccc3c2)C1)[C@H]1CCc2nc(N)sc2C1
Ki: 745 nM

====

biological target: Histamine H3 receptor (Homo sapiens, UniProt Q9Y5N1); test: Displacement of [3H]-alpha-methylhistamine from recombinant human histamine H3 receptor expressed in HEK Flp-In cell membranes measured after 90 mins by microbeta scintillation counting method; settings: read-out: Ki
Sequence (Q9Y5N1 whole entry): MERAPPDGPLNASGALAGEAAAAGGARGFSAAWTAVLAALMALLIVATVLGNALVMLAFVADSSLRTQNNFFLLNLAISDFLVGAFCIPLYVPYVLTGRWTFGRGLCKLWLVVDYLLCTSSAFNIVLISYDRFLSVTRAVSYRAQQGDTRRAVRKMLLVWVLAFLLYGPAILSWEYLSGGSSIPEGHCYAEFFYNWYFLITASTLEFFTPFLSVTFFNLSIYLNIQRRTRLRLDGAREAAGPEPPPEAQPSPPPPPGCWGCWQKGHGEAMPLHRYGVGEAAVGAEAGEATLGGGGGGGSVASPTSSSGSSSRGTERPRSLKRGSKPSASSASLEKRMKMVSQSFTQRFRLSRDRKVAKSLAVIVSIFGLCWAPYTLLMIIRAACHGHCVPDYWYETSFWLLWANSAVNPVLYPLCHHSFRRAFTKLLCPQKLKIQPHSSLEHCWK

compound smiles: CCCN(CC[C@]1(O)C[C@H](NC(=O)c2ccc3ccccc3c2)C1)[C@H]1CCc2nc(N)sc2C1
Ki / nM: 893

====

target: Muscarinic acetylcholine receptor M3 (Homo sapiens)
Sequence (P20309 whole entry): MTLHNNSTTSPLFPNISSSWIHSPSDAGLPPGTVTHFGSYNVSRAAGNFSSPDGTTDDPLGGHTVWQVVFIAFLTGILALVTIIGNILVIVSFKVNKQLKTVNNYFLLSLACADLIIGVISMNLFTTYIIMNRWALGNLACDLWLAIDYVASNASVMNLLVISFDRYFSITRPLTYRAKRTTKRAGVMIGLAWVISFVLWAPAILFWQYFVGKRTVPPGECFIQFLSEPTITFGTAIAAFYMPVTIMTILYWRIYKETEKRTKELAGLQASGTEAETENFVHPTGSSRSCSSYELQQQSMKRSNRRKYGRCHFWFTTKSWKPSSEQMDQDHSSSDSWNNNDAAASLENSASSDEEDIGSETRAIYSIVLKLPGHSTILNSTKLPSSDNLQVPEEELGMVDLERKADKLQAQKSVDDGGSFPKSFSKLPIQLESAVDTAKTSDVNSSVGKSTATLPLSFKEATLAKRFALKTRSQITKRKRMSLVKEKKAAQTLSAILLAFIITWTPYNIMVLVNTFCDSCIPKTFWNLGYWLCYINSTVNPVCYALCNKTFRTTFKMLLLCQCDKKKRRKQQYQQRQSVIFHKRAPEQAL
pKi: −log10 of the molar value.

compound: CCCN[C@H]1CCc2nc(N)sc2C1 [PRAMIPEXOLE]
target or test system: Muscarinic acetylcholine receptor M3 (Homo sapiens)
pKi: < 5.00

====

target: 5HT7A receptor (Homo sapiens, UniProt P34969); assay: Displacement of [3H]-LSD from recombinant human 5HT7A receptor stably expressed in HEK cell membranes at 10 uM measured after 90 mins by microbeta scintillation counting method relative to control; conditions: probe [3H]-LSD
Sequence (P34969 whole entry): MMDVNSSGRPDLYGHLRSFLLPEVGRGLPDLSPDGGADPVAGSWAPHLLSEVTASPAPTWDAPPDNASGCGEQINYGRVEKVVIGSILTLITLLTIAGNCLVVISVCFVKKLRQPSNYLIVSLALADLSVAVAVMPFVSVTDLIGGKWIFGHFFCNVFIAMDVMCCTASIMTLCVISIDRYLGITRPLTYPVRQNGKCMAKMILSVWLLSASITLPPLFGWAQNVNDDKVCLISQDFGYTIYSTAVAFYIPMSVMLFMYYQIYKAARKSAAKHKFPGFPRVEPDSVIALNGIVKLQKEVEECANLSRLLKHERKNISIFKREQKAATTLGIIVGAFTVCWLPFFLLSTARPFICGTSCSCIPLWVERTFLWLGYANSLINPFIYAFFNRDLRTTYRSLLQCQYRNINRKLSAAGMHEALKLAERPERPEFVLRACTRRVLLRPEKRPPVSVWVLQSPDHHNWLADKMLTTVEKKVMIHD

compound: CCCN(CC[C@]1(O)C[C@H](NC(=O)c2ccc3ccccc3c2)C1)[C@H]1CCc2nc(N)sc2C1
inhibition at […], 10 µM: > 50%

compound: CCCN[C@H]1CCc2nc(N)sc2C1 [PRAMIPEXOLE]
inhibition at […], 10 µM: > 50%

====

target: 5-hydroxytryptamine receptor 2C (Homo sapiens); assay: Displacement of [3H]-Mesulergine from recombinant human 5HT2C receptor expressed in HEK cell membranes measured after 90 mins by microbeta scintillation counting method; details: read-out: Ki
Sequence (P28335 whole entry): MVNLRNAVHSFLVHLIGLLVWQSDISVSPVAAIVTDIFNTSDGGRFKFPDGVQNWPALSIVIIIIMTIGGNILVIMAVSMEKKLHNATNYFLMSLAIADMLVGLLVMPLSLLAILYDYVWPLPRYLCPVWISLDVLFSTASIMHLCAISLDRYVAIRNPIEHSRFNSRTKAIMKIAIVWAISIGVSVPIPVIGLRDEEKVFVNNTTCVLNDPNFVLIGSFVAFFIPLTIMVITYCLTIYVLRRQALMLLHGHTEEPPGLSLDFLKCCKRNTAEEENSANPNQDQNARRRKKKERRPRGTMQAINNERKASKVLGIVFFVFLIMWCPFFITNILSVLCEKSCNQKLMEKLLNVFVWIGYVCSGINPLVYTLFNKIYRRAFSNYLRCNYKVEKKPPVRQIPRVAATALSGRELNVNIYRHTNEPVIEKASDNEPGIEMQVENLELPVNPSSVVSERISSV
measurement name: Ki (µM)

compound smiles: CCCN(CC[C@]1(O)C[C@H](NC(=O)c2ccc3ccccc3c2)C1)[C@H]1CCc2nc(N)sc2C1
target or test system: 5-hydroxytryptamine receptor 2C (Homo sapiens)
unit symbol: µM
value reported: 0.762

====

biological target: UniProt:P28223; test: Displacement of [3H]-Ketanserin from 5HT2A receptor (unknown origin) at 10 uM measured after 90 mins by microbeta scintillation counting method relative to control; conditions: probe [3H]-Ketanserin
Sequence (P28223 whole entry): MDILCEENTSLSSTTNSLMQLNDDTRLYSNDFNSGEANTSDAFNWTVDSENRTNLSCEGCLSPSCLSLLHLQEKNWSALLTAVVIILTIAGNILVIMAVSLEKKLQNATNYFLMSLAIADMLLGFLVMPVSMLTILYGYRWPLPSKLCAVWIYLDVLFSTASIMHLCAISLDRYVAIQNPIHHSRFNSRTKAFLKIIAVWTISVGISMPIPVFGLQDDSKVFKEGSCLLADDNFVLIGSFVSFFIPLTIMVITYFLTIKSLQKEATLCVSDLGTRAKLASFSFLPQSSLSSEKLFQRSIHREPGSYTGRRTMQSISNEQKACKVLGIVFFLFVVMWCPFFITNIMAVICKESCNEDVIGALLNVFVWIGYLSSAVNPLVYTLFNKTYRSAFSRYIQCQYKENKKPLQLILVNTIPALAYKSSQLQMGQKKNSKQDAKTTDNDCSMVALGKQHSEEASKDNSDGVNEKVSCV

compound: CCCN[C@H]1CCc2nc(N)sc2C1 [PRAMIPEXOLE]
inhibition at […], 10 µM: < 50%

compound: CCCN(CC[C@]1(O)C[C@H](NC(=O)c2ccc3ccccc3c2)C1)[C@H]1CCc2nc(N)sc2C1
inhibition at […], 10 µM: > 50%

====

biological target: 5HT2B receptor (Homo sapiens, UniProt P41595); test: Displacement of [3H]-LSD from recombinant human 5HT2B receptor stably expressed in HEK cell membranes at 10 uM measured after 90 mins by microbeta scintillation counting method relative to control; settings: probe [3H]-LSD
Sequence (P41595 whole entry): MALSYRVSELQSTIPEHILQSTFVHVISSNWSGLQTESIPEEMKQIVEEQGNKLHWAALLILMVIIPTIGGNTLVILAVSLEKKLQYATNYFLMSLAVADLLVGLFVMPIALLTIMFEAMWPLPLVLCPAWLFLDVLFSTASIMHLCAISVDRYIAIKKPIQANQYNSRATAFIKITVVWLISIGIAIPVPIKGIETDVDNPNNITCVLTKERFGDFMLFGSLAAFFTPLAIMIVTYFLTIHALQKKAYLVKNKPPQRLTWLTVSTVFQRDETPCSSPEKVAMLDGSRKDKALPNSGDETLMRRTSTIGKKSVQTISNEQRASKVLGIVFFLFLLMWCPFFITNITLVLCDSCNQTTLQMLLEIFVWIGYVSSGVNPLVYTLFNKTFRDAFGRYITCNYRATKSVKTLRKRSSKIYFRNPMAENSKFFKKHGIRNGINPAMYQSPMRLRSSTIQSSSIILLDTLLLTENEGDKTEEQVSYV

molecule: CCCN(CC[C@]1(O)C[C@H](NC(=O)c2ccc3ccccc3c2)C1)[C@H]1CCc2nc(N)sc2C1
inhibition at […], 10 µM: > 50%
//
molecule: CCCN[C@H]1CCc2nc(N)sc2C1 [PRAMIPEXOLE]
inhibition at […], 10 µM: < 50%

====

target: D(2) dopamine receptor (Homo sapiens); experiment: Antagonist activity at human D2R expressed in CHOK1 cells assessed as inhibition of dopamine-induced beta-arrestin recruitment measured after 120 mins by beta-galactosidase based PathHunter assay; assay type: cell-based; details: read-out: IC50
Below, each of the compounds is paired with its reported IC50 value.
measurement name: IC50 (µM)

compound: COc1ccc(OCCN2CCN(C(=O)c3cc4cccc(OC)c4[nH]3)CC2)cc1
measurement name: IC50
unit symbol: µM
comparative sign: >
value reported: 10
--
compound: COc1ccc(OCCN2CCN(C(=O)c3ccc4[nH]ccc4c3)CC2)cc1
measurement name: IC50
unit symbol: µM
comparative sign: =
value reported: 4.6
--
compound: COc1ccc(OCC(C)N2CCN(C(=O)c3ccc(OC)cc3)CC2)cc1 (racemic)
measurement name: IC50
unit symbol: µM
comparative sign: >
value reported: 100
--
compound: COc1ccc(OCCN2CCN(C(=O)c3cc4cccc(C)c4[nH]3)CC2)cc1
measurement name: IC50
unit symbol: µM
comparative sign: >
value reported: 100
--
compound: COc1cccc(OCCN2CCN(C(=O)c3cc4cnccc4[nH]3)CC2)c1
measurement name: IC50
unit symbol: µM
comparative sign: =
value reported: 7.4
